# System: Cells
# protocol_description: Cell viability, CTG luminescence, 72 h (Example 7, Experiment 1)
# Assay type: cell-based
# assay_conditions: Homo sapiens, Daudi
measured_attribute: IC50
Respond with the figure and its unit, in that order.

# IC50 (molecule: `CC(=O)N[C@@H](Cc1c[nH]c2ccccc12)C(=O)N[C@@H](CCC(=O)C=[N+]=[N-])C(=O)OC(C)C` ) is 1080 nM

# IC50 (molecule: [N-]=[N+]=CC(=O)CC[C@H](N)C(=O)O [DON, 6-Diazo-5-oxo-L-norleucine, reference compound] ) is 388 nM

====

Exercise: state measured pIC50 for each of the compounds provided.
# Tested on: Ninety four (94) cell lines and PBMC
# protocol_description: Cell viability assay, SRB staining, 94 cell lines and PBMC (Example 7, Experiment 2)
# Format: cell-based
# assay_conditions: Homo sapiens, 786-0, 786O, kidney
Keep it numeric: pIC50 is minus log10 of the concentration in mol/L.

Record for [N-]=[N+]=CC(=O)CC[C@H](N)C(=O)O [DON, 6-Diazo-5-oxo-L-norleucine, reference compound] under target or system Ninety four (94) cell lines and PBMC: pIC50 reported as 5.53

Record for `CC(=O)N[C@@H](Cc1c[nH]c2ccccc12)C(=O)N[C@@H](CCC(=O)C=[N+]=[N-])C(=O)OC(C)C` under target or system Ninety four (94) cell lines and PBMC: pIC50 reported as 5.42

====

Exercise: state measured pIC50 for each of the molecules provided.
# Tested on: Cells
# protocol_description: Cell viability, CTG luminescence, 72 h (Example 7, Experiment 1)
# Type: cell-based
# assay_conditions: Homo sapiens, BT-474, 72 h, BT-474
Keep it numeric: pIC50 is minus log10 of the concentration in mol/L.

# pIC50 (molecule: [N-]=[N+]=CC(=O)CC[C@H](N)C(=O)O [DON, 6-Diazo-5-oxo-L-norleucine, reference compound] ) is 4.82

# pIC50 (molecule: CC(=O)N[C@@H](Cc1c[nH]c2ccccc12)C(=O)N[C@@H](CCC(=O)C=[N+]=[N-])C(=O)OC(C)C [Compound 1] ) is 5.01

====

# Tested on: Ninety four (94) cell lines and PBMC
# protocol_description: Cell viability assay, SRB staining, 94 cell lines and PBMC (Example 7, Experiment 2)
# Assay type: cell-based
# assay_conditions: Homo sapiens, JIMT-1, JIMT1, breast
Exercise: state measured IC50 for each of the compounds provided.
# value in µM; strip the unit string

# IC50 (compound: [N-]=[N+]=CC(=O)CC[C@H](N)C(=O)O [DON, 6-Diazo-5-oxo-L-norleucine, reference compound] ) is 26.8

# IC50 (compound: `CC(=O)N[C@@H](Cc1c[nH]c2ccccc12)C(=O)N[C@@H](CCC(=O)C=[N+]=[N-])C(=O)OC(C)C` ) is 40.6

====

Exercise: state measured IC50 for each of the compounds provided.
# System: Cells
# protocol_description: Cell viability, CTG luminescence, 72 h (Example 7, Experiment 1)
# Format: cell-based
# assay_conditions: Homo sapiens, NCI-H1650, 72 h, NCI-H1650
# value in µM; strip the unit string

# IC50 (compound: `CC(=O)N[C@@H](Cc1c[nH]c2ccccc12)C(=O)N[C@@H](CCC(=O)C=[N+]=[N-])C(=O)OC(C)C` ) is 6.61

# IC50 (compound: [N-]=[N+]=CC(=O)CC[C@H](N)C(=O)O [DON, 6-Diazo-5-oxo-L-norleucine, reference compound] ) is 1.89

====

Exercise: state measured IC50 for each of the molecules provided.
# System: Ninety four (94) cell lines and PBMC
# protocol_description: Cell viability assay, SRB staining, 94 cell lines and PBMC (Example 7, Experiment 2)
# Type: cell-based
# assay_conditions: Homo sapiens, C-33-A, C33A, endometrial
# value in µM; strip the unit string

# IC50 (molecule: [N-]=[N+]=CC(=O)CC[C@H](N)C(=O)O [DON, 6-Diazo-5-oxo-L-norleucine, reference compound] ) is 7.04

# IC50 (molecule: `CC(=O)N[C@@H](Cc1c[nH]c2ccccc12)C(=O)N[C@@H](CCC(=O)C=[N+]=[N-])C(=O)OC(C)C` ) is 7.69

====

# System: Ninety four (94) cell lines and PBMC
# protocol_description: Cell viability assay, SRB staining, 94 cell lines and PBMC (Example 7, Experiment 2)
# Type: cell-based
# assay_conditions: Homo sapiens, MDA-MB-468, MDAMB468, breast
measured_attribute: pIC50
Keep it numeric: pIC50 is minus log10 of the concentration in mol/L.

# pIC50 (compound: CC(=O)N[C@@H](Cc1c[nH]c2ccccc12)C(=O)N[C@@H](CCC(=O)C=[N+]=[N-])C(=O)OC(C)C [Compound 1] ) is 6.10

# pIC50 (compound: [N-]=[N+]=CC(=O)CC[C@H](N)C(=O)O [DON, 6-Diazo-5-oxo-L-norleucine, reference compound] ) is 6.22

====

# Tested on: Cells
# protocol_description: Cell viability, CTG luminescence, 72 h (Example 7, Experiment 1)
# Type: cell-based
# assay_conditions: AGS
measured_attribute: pIC50
Keep it numeric: pIC50 is minus log10 of the concentration in mol/L.

# pIC50 (molecule: `CC(=O)N[C@@H](Cc1c[nH]c2ccccc12)C(=O)N[C@@H](CCC(=O)C=[N+]=[N-])C(=O)OC(C)C` ) is 4.70

# pIC50 (molecule: [N-]=[N+]=CC(=O)CC[C@H](N)C(=O)O [DON, 6-Diazo-5-oxo-L-norleucine, reference compound] ) is 4.86

====

# Tested on: Ninety four (94) cell lines and PBMC
# protocol_description: Cell viability assay, SRB staining, 94 cell lines and PBMC (Example 7, Experiment 2)
# Assay type: cell-based
# assay_conditions: Homo sapiens, NCI-H292, NCIH292, lung
measured_attribute: pIC50
Keep it numeric: pIC50 is minus log10 of the concentration in mol/L.

# pIC50 (molecule: [N-]=[N+]=CC(=O)CC[C@H](N)C(=O)O [DON, 6-Diazo-5-oxo-L-norleucine, reference compound] ) is 4.27

====

# Tested on: Cells
# protocol_description: Cell viability, CTG luminescence, 72 h (Example 7, Experiment 1)
# Type: cell-based
# assay_conditions: Homo sapiens, HCC1806, 72 h, HCC1806
# Description: Cells were cultured in the appropriate medium at 37° C. and 5% CO2 atmosphere. Cells were harvested by trypsinization, spun at 800 rpm for 5 min and resuspended in medium. The cell concentration was adjusted with medium and seeded at a cell density of 3000 cells in 90 μL per well in 96-well plates, and incubated overnight at 37° C. and 5% CO2. […] Luminescence was recorded on Perkin Elmer Envision 2104 Multilabel Reader. […]
Exercise: state measured IC50 for each of the compounds provided.
# value in nM; strip the unit string

# IC50 (compound: CC(=O)N[C@@H](Cc1c[nH]c2ccccc12)C(=O)N[C@@H](CCC(=O)C=[N+]=[N-])C(=O)OC(C)C [Compound 1] ) is 3860

# IC50 (compound: [N-]=[N+]=CC(=O)CC[C@H](N)C(=O)O [DON, 6-Diazo-5-oxo-L-norleucine, reference compound] ) is 720

====

# Test system: Ninety four (94) cell lines and PBMC
# protocol_description: Cell viability assay, SRB staining, 94 cell lines and PBMC (Example 7, Experiment 2)
# Type: cell-based
# assay_conditions: Homo sapiens, MDA-MB-435, MDAMB435, skin
Exercise: state measured pIC50 for each of the compounds provided.
Keep it numeric: pIC50 is minus log10 of the concentration in mol/L.

Record for `CC(=O)N[C@@H](Cc1c[nH]c2ccccc12)C(=O)N[C@@H](CCC(=O)C=[N+]=[N-])C(=O)OC(C)C` under target or system Ninety four (94) cell lines and PBMC: pIC50 reported as 4.82

Record for [N-]=[N+]=CC(=O)CC[C@H](N)C(=O)O [DON, 6-Diazo-5-oxo-L-norleucine, reference compound] under target or system Ninety four (94) cell lines and PBMC: pIC50 reported as 5.58

====

# Tested on: Cells
# protocol_description: Cell viability, CTG luminescence, 72 h (Example 7, Experiment 1)
# Assay type: cell-based
# assay_conditions: Homo sapiens, NCI-H322M
measured_attribute: pIC50
Keep it numeric: pIC50 is minus log10 of the concentration in mol/L.

# pIC50 (compound: `CC(=O)N[C@@H](Cc1c[nH]c2ccccc12)C(=O)N[C@@H](CCC(=O)C=[N+]=[N-])C(=O)OC(C)C` ) is 4.31

# pIC50 (compound: [N-]=[N+]=CC(=O)CC[C@H](N)C(=O)O [DON, 6-Diazo-5-oxo-L-norleucine, reference compound] ) is 5.32

====

# Tested on: Cells
# protocol_description: Cell viability, CTG luminescence, 72 h (Example 7, Experiment 1)
# Assay type: cell-based
# assay_conditions: Homo sapiens, Huh-7, 72 h, HuH-7
measured_attribute: IC50 (µM)
# value in µM; strip the unit string

# IC50 (compound: `CC(=O)N[C@@H](Cc1c[nH]c2ccccc12)C(=O)N[C@@H](CCC(=O)C=[N+]=[N-])C(=O)OC(C)C` ) is 1.27

# IC50 (compound: [N-]=[N+]=CC(=O)CC[C@H](N)C(=O)O [DON, 6-Diazo-5-oxo-L-norleucine, reference compound] ) is 5.94
